# Measured Target: DGKzeta (Homo sapiens, UniProt Q13574)
# Sequence (Q13574 whole entry): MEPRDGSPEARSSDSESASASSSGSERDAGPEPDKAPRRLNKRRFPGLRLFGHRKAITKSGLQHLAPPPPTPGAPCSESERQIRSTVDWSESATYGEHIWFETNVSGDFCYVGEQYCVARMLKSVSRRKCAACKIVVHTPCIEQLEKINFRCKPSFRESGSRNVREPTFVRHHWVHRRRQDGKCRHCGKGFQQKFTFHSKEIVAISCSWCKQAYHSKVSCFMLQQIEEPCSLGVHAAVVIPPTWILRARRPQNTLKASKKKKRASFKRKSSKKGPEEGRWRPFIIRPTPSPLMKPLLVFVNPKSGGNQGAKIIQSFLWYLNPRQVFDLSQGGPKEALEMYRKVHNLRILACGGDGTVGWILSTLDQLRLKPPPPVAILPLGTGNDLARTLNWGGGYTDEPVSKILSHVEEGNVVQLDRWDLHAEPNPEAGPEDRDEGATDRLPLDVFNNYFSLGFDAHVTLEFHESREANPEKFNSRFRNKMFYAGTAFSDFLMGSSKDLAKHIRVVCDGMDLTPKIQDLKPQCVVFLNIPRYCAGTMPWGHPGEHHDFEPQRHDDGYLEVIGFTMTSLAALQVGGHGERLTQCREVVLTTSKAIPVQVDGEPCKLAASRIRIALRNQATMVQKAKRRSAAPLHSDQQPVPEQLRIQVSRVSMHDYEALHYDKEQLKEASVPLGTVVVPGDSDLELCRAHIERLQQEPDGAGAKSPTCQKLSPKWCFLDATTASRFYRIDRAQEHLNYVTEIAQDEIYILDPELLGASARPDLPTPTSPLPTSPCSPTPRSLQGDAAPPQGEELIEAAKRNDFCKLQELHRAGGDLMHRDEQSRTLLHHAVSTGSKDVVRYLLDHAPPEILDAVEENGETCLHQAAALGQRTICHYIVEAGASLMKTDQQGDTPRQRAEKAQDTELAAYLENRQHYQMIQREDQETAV
# Experiment Notes: In vitro DGK inhibition assay (ADP-Glo, liposomes), DGKzeta
# Assay type: biochemical
# Parameters: hDGKzeta(1-928)-N-His; His (N); made in house; host or cells: Sf21 insect cells (baculovirus)
# Applied Conditions: 2 nM DGK ζ, 50 μM ATP, 125 uM DLG in liposomes, 1 hour reaction
Result Type: pIC50
Just so you know, pIC50 here is -log10 of the concentration in molar units; reply with that number alone.

Example entries begin here.
[[record]]
compound = "COCC(C)(C)Oc1ccc(CN2C(=O)[C@@H](N)CS(=O)(=O)c3cc(F)c(-c4noc(C(C)(C)S(C)(=O)=O)n4)cc32)cc1 [Example 62]"
observed_result = 6.57

[[record]]
compound = "COc1ccc(-c2ccc(CN3C(=O)[C@@H](N)CS(=O)(=O)c4ccc(-c5noc(C(C)(C)S(C)(=O)=O)n5)cc43)cc2)cc1 [Example 63]"
observed_result = 5.63

[[record]]
compound = "CC(C)(c1nnc(-c2cc3c(cc2F)S(=O)(=O)C[C@H](N)C(=O)N3Cc2ccc(-c3ccc(C(F)(F)F)cc3)cc2)o1)S(C)(=O)=O [Example 35]"
observed_result = 6.19


Give the measured pIC50 of CC(C)(c1nnc(-c2ccc3c(c2)N(Cc2ccc(OCCC(F)(F)F)cc2)C(=O)[C@@H](N)CS3(=O)=O)o1)S(C)(=O)=O [Example 23] .
5.90

Repeat for the following compound: CC(C)(c1nnc(-c2ccc3c(c2)N(Cc2ccc(Oc4cccc(OC(F)F)c4)cc2)C(=O)[C@@H](N)CS3(=O)=O)o1)S(C)(=O)=O [Example 47]
6.33

Repeat for the following compound: CC(C)(c1nnc(-c2ccc3c(c2)N(Cc2ccc(Oc4ccccc4)cc2)C(=O)[C@@H](N)CS3(=O)=O)o1)S(C)(=O)=O [Example 5]
6.15

Repeat for the following compound: CC(C)(c1nnc(-c2ccc3c(c2)N(Cc2ccc(OCc4ccccc4F)cc2)C(=O)[C@@H](N)CS3(=O)=O)o1)S(C)(=O)=O [Example 14]
5.95

* * *

# Measured Target: DGKzeta (Homo sapiens, UniProt Q13574)
# Experiment Notes: In vitro DGK inhibition assay (ADP-Glo, liposomes), DGKzeta
# Type: biochemical
# Set-up: hDGKzeta(1-928)-N-His; His (N); made in house; host or cells: Sf21 insect cells (baculovirus)
# Applied Conditions: 2 nM DGK ζ, 50 μM ATP, 125 uM DLG in liposomes, 1 hour reaction
Result Type: IC50

Example entries begin here.
[[record]]
molecule = "COc1ccc(-c2ccc(CN3C(=O)[C@@H](N)CS(=O)(=O)c4cc(F)c(-c5noc(C(C)(C)S(C)(=O)=O)n5)cc43)cc2)cc1 [Example 50]"
observed_result = "0.377 µM"

[[record]]
molecule = "CC(C)(c1nnc(-c2ccc3c(c2)N(Cc2ccc(Oc4cccc(Cl)c4)cc2)C(=O)[C@@H](N)CS3(=O)=O)o1)S(C)(=O)=O [Example 34]"
observed_result = "1.1 µM"

[[record]]
molecule = "CC(C)(c1nnc(-c2ccc3c(c2)N(Cc2ccc(Oc4cccc(Br)c4)cc2)C(=O)[C@@H](N)CS3(=O)=O)o1)S(C)(=O)=O [Example 60]"
observed_result = "0.609 µM"


# ---- query molecule ----
Give the measured IC50 of CC(C)(c1nnc(-c2cc3c(cc2F)S(=O)(=O)C[C@H](N)C(=O)N3Cc2ccc(Cl)cc2)o1)S(C)(=O)=O [Example 2] .
1.38 µM

* * *

# Measured Target: UniProt Q13574
# Experiment Notes: In vitro DGK inhibition assay (ADP-Glo, liposomes), DGKzeta
# Assay type: biochemical
# Design: hDGKzeta(1-928)-N-His; His (N); made in house; host or cells: Sf21 insect cells (baculovirus)
# Applied Conditions: 2 nM DGK ζ, 50 μM ATP, 125 uM DLG in liposomes, 1 hour reaction
# Protocol: DGK α and ζ kinases use ATP to phosphorylate the substrate 1,2-dilauroyl-sn-glycerol (DLG, incorporated in the liposomes). ATP is converted to ADP as a result of this enzymatic reaction. After the kinase reaction, an ATP-depletion reagent is added to terminate the kinase reaction and deplete any remaining ATP, leaving only ADP. […]
Measured IC50, listed per entry.
Numeric answer only, unit nM assumed.

Example entries begin here.
[[record]]
molecular_string = "CC(C)(c1nnc(-c2cc3c(cc2F)S(=O)(=O)C[C@H](N)C(=O)N3Cc2ccc(OCC(F)(F)F)cc2)o1)S(C)(=O)=O"
uom = "nM"
observed_result = 503

[[record]]
molecular_string = "COc1ccc(-c2ccc(CN3C(=O)[C@@H](N)CS(=O)(=O)c4ccc(-c5nnc(C(C)(C)S(C)(=O)=O)o5)cc43)cc2)cc1"
uom = "nM"
observed_result = 1080


Give the measured IC50 of COc1cccc(-c2ccc(CN3C(=O)[C@@H](N)CS(=O)(=O)c4ccc(-c5nnc(C(C)(C)S(C)(=O)=O)o5)cc43)cc2)c1 .
1640
